Provide the reported viscosity of each item.
Details: 298.15 K; 101.33 kPa; Liquid; Capillary tube (Ostwald / Ubbelohde) method
One number for each entry, in mPa·s.

Example molecules with recorded viscosity:
{"MOLECULE": "CCCCCCO", "ASSAY VALUE": 4.436}
{"MOLECULE": "CCCCCCCCCCO", "ASSAY VALUE": 10.61}
{"MOLECULE": "CCCCCCCCO", "ASSAY VALUE": 7.446}

Then this molecule:
What does the data say about its viscosity? Entry: C1CCOC1 [tetrahydrofuran]
0.474

====

Conditions: 298.15 K; 101.33 kPa; Liquid; Sing-around technique in a fixed-path interferometer
Provide the reported speed of sound of each item.
Give bare numbers, in m/s.

Please supply speed of sound for each of the following items, keeping them in order.
1. C1CCOC1 [tetrahydrofuran]
2. CCCCCCO [hexan-1-ol]
3. CCCCCCCCO [octan-1-ol]
4. CCCCCCCCCCO [decan-1-ol]

1. 1280.1
2. 1303.5
3. 1347.9
4. 1379.3

====

Provide the reported mass density of each item.
Conditions: 298.15 K; 101.33 kPa; Liquid; Vibrating tube method
Numbers after ± are expanded uncertainties.

{"COMPOUND": "C1CCOC1 [tetrahydrofuran]", "mass density": "882.15 ± 0.23 kg/m3"}
{"COMPOUND": "CCCCCCCCCCO", "mass density": "826.407 ± 0.24 kg/m3"}
{"COMPOUND": "CCCCCCCCO", "mass density": "821.837 ± 0.24 kg/m3"}

Then this compound:
What does the data say about its mass density? Entry: CCCCCCO
815.295 ± 0.24 kg/m3
